target: Focal adhesion kinase 1 (Homo sapiens)
Property: IC50 (µM)
Please state the figure in µM; there is no need to write the unit.

Inquiry: Record lookup: for Focal adhesion kinase 1 (Homo sapiens), what IC50 belongs to CCc1ccc(-c2ccc3c(c2)-c2c(cnn2CC)S(=O)(=O)N3C)cc1 ?
Reply text: 3

----------
molecular target: Focal adhesion kinase 1 (Homo sapiens); assay: Inhibition of human GST-tagged phosphorylated full length FAK incubated for 60 mins prior to 0.5 uM of ATP addition by HTRF analysis
pIC50: −log10 of the molar value.
Property: pIC50

Inquiry: For the compound shown here, CCc1ccc(-c2ccc3c(c2)-c2c(cnn2CC)S(=O)(=O)N3C)cc1 , give the reported pIC50.
Reply text: < 4.52

----------
target: Protein-tyrosine kinase 2-beta (Homo sapiens, UniProt Q14289); test: Inhibition of human GST-tagged phosphorylated full length PYK2 (1 to 967) using Poly-(GT)-biotin as substrate by HTRF analysis in presence of [gamma-33P]ATP
Sequence (Q14289 whole entry): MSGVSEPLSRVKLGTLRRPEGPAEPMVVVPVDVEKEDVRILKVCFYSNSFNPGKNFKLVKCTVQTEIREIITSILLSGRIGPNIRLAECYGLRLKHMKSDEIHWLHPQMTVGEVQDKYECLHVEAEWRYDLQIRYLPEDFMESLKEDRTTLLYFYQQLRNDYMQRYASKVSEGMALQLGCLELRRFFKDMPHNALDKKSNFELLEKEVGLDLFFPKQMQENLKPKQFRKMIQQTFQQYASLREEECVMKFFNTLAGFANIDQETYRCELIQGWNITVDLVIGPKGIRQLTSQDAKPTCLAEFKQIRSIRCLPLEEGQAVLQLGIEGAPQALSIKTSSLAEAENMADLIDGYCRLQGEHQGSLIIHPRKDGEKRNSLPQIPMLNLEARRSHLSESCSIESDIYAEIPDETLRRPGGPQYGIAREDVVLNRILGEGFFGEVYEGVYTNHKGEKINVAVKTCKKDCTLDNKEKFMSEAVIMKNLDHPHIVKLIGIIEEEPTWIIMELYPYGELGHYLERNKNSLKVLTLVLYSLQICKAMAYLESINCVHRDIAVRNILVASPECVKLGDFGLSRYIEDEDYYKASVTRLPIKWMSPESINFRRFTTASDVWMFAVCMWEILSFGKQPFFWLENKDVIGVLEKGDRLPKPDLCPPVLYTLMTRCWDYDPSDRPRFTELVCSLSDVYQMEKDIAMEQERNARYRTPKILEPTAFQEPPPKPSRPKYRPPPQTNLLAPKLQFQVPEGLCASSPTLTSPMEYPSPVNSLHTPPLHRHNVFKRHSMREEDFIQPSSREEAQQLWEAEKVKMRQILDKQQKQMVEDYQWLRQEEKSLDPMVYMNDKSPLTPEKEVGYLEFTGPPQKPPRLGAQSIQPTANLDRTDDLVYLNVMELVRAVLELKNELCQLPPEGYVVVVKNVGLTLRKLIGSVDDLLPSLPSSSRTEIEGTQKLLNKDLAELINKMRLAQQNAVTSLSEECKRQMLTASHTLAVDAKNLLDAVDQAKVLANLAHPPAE
pIC50: −log10 of the molar value.
Property: pIC50

Inquiry: For the compound shown here, CCc1ccc(-c2ccc3c(c2)-c2c(cnn2CC)S(=O)(=O)N3C)cc1 , give the reported pIC50.
Reply text: < 4.52

----------
target: Serine/threonine-protein kinase Chk2 (Homo sapiens)
Sequence (O96017 whole entry): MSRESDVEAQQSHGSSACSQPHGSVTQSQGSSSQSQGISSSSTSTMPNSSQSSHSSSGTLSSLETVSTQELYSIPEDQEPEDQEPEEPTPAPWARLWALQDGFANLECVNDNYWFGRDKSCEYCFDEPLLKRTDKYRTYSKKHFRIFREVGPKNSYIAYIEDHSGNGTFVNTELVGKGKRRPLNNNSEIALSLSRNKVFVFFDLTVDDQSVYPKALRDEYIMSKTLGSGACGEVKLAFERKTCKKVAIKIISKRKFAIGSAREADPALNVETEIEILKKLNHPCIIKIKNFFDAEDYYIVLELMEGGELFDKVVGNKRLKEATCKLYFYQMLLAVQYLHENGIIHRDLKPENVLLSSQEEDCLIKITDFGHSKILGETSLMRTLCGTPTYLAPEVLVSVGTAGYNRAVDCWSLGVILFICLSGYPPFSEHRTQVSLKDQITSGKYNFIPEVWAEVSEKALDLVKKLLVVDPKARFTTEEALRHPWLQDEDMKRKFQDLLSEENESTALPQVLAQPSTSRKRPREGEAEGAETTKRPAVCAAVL
Property: IC50

Inquiry: Record lookup: for Serine/threonine-protein kinase Chk2 (Homo sapiens), what IC50 belongs to CCc1ccc(-c2ccc3c(c2)-c2c(cnn2CC)S(=O)(=O)N3C)cc1 ?
Reply text: > 10 µM

----------
target: Focal adhesion kinase 1 (Homo sapiens, UniProt Q05397); experiment: Inhibition of human FLAG-tagged unphosphorylated full length FAK expressed in baculovirus expression system incubated for 60 mins prior to 1000 uM of ATP addition by AlphaScreen assay
Sequence (Q05397 whole entry): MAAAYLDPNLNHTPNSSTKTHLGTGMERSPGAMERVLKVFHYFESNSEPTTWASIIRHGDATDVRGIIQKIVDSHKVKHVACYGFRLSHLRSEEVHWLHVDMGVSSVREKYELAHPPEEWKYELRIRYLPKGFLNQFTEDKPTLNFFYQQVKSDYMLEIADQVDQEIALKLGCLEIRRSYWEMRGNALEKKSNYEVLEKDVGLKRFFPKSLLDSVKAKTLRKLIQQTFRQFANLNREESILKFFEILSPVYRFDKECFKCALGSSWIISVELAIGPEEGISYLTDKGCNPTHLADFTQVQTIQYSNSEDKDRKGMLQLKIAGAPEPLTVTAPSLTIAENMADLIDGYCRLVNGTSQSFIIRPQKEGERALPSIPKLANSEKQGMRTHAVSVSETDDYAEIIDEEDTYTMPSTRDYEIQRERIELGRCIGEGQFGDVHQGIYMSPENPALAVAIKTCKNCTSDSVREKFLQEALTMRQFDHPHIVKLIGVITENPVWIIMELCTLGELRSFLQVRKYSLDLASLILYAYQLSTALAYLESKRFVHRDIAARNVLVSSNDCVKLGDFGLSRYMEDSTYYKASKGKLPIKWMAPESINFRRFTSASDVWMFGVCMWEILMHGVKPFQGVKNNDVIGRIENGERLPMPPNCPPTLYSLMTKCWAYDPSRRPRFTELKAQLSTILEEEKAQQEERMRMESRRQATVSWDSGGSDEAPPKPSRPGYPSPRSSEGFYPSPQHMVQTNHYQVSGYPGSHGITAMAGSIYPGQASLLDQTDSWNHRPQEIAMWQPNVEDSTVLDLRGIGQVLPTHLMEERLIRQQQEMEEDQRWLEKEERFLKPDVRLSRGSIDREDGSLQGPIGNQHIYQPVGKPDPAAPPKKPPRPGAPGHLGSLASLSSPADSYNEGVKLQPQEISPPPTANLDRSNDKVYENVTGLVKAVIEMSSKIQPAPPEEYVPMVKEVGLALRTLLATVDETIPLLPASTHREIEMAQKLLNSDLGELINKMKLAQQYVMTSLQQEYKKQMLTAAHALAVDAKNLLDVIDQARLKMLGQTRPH
Property: IC50
Just the number plus its unit, please.

Inquiry: For the molecule shown here, CCc1ccc(-c2ccc3c(c2)-c2c(cnn2CC)S(=O)(=O)N3C)cc1 , give the reported IC50.
Reply text: 3.2 µM

----------
target: Mast/stem cell growth factor receptor Kit (Homo sapiens, UniProt P10721, D816V); assay: Inhibition of c-Kit D816V mutant (unknown origin) using [gamma-33P]ATP
Sequence (P10721 26-976 D816V limits assumed): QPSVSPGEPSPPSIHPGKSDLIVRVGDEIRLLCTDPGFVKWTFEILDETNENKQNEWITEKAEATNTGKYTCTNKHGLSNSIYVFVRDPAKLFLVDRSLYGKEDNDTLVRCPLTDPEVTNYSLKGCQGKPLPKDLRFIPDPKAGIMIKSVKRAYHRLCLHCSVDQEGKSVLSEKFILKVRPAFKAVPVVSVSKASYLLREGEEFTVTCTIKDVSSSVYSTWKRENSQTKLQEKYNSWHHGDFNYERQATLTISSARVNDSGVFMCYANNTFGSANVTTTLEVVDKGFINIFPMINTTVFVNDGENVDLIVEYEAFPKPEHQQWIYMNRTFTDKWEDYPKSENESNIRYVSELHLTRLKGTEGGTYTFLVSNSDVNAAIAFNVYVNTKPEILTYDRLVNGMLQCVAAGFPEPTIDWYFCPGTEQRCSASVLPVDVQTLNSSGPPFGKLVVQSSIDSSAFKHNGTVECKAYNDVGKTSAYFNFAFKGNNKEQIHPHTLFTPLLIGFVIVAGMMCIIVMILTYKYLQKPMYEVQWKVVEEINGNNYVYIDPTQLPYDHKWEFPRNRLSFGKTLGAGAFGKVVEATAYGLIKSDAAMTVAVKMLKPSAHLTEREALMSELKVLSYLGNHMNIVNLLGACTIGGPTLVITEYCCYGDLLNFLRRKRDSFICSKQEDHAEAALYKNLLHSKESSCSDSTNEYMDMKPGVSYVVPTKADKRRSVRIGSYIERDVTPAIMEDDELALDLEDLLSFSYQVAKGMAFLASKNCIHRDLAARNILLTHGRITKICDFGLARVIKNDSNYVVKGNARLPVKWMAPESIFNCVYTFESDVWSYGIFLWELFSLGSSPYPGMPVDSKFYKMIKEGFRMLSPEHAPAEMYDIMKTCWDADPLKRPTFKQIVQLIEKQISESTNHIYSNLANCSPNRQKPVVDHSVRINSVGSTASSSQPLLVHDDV
Property: pIC50
pIC50 here: minus log base 10 of the concentration, concentration in moles per litre.

Inquiry: For the compound shown here, CCc1ccc(-c2ccc3c(c2)-c2n[nH]cc2S(=O)(=O)N3C)cc1 , give the reported pIC50.
Reply text: 5.55

----------
biological target: Mitogen-activated protein kinase kinase kinase kinase 4 (Homo sapiens, UniProt O95819); test: Inhibition of HGK (unknown origin) using [gamma-33P]ATP
Sequence (O95819 whole entry): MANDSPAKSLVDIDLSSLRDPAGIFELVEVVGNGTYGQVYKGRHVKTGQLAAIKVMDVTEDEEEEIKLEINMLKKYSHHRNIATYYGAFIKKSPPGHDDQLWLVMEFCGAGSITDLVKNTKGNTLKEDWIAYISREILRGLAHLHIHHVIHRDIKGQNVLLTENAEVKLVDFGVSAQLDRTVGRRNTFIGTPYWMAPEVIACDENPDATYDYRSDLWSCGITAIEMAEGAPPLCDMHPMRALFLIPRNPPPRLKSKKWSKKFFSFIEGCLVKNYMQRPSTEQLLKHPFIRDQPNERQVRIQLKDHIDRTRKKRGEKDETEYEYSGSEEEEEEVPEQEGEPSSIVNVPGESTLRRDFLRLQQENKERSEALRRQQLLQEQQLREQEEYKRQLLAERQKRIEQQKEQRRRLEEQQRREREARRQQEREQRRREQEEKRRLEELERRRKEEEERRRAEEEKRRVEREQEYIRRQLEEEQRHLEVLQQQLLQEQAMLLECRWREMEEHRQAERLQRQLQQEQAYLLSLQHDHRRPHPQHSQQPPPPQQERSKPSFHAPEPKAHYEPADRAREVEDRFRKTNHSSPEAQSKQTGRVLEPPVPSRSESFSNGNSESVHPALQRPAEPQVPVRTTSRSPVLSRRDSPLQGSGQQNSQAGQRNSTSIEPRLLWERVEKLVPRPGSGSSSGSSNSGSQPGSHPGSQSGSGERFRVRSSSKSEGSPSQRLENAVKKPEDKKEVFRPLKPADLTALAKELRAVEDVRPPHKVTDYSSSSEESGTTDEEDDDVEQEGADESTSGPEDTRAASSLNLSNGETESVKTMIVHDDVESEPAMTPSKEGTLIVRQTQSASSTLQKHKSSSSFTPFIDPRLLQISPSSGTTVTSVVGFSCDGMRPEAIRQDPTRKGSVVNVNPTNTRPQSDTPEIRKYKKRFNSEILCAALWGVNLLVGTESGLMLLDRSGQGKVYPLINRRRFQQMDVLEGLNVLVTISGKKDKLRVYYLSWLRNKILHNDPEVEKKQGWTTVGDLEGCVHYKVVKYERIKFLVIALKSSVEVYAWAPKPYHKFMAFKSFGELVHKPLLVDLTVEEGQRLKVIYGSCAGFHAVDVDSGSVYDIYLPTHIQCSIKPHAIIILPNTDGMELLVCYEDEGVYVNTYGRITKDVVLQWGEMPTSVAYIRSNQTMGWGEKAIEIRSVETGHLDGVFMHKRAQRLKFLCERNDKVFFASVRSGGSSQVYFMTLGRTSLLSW
Property: pIC50
pIC50 here: minus log base 10 of the concentration, concentration in moles per litre.

Inquiry: Record lookup: for Mitogen-activated protein kinase kinase kinase kinase 4 (Homo sapiens, UniProt O95819), what pIC50 belongs to CCc1ccc(-c2ccc3c(c2)-c2n[nH]cc2S(=O)(=O)N3C)cc1 ?
Reply text: 5.80

----------
biological target: UniProtKB Q05397; experiment: Inhibition of human GST-tagged phosphorylated full length FAK incubated for 60 mins prior to 1000 uM of ATP addition by HTRF analysis
Property: IC50

Inquiry: Record lookup: for UniProtKB Q05397, what IC50 belongs to CCc1ccc(-c2ccc3c(c2)-c2c(cnn2CC)S(=O)(=O)N3C)cc1 ?
Reply text: > 30 µM

----------
A set of compounds tested on UniProt P06241, with measured IC50:

Inquiry: For the compound shown here, CCc1ccc(-c2ccc3c(c2)-c2c(cnn2CC)S(=O)(=O)N3C)cc1 , give the reported IC50.
Reply text: > 10000 nM

Inquiry: For the compound shown here, CCc1ccc(-c2ccc3c(c2)-c2n[nH]cc2S(=O)(=O)N3C)cc1 , give the reported IC50.
Reply text: 2800 nM

----------
target: Focal adhesion kinase 1 (Homo sapiens); assay: Inhibition of human FLAG-tagged unphosphorylated full length FAK expressed in baculovirus expression system incubated for 60 mins prior to 0.5 uM of ATP addition by AlphaScreen assay
Property: IC50 (µM)
Please state the figure in µM; there is no need to write the unit.

Inquiry: Record lookup: for Focal adhesion kinase 1 (Homo sapiens), what IC50 belongs to CCc1ccc(-c2ccc3c(c2)-c2c(cnn2CC)S(=O)(=O)N3C)cc1 ?
Reply text: 3.2

----------
molecular target: Focal adhesion kinase 1 (Homo sapiens)
Property: IC50 (µM)
Please state the figure in µM; there is no need to write the unit.

Inquiry: Record lookup: for Focal adhesion kinase 1 (Homo sapiens), what IC50 belongs to CCc1ccc(-c2ccc3c(c2)-c2c(cnn2CC)S(=O)(=O)N3C)cc1 ?
Reply text: 1.6

----------
biological target: Focal adhesion kinase 1 (Homo sapiens, UniProt Q05397); assay: Inhibition of human FLAG-tagged unphosphorylated full length FAK expressed in baculovirus expression system incubated for 5 mins prior to 1000 uM of ATP addition by AlphaScreen assay
Property: IC50

Inquiry: For the compound shown here, CCc1ccc(-c2ccc3c(c2)-c2c(cnn2CC)S(=O)(=O)N3C)cc1 , give the reported IC50.
Reply text: > 10 µM
